# assayTarget: Bcl-2 protein (Recombinant Human Bcl-2 Protein) (Homo sapiens, UniProt P10415)
# Construct: purchased Novus NBP2-34889
# Sequence (P10415 whole entry): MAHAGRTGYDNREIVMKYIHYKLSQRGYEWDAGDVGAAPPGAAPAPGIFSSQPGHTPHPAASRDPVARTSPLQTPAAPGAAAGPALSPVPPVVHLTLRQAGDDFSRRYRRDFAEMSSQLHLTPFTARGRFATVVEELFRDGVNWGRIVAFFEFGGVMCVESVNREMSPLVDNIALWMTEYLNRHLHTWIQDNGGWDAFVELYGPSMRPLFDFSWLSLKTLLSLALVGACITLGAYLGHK
# testSummary: Binding evaluation of mixture library compounds to Bcl-2 using AS-MS (affinity selection mass spectrometry)
# conditionSet: AS-MS on the mixture of 1200 library compounds; ASMS Ratio(%)=(A−C)/B×100; replicate n = 2
# Protocol: […] Then, analysis of the 1200 compounds was carried out for samples A, B, and C with TraceFinder 5.1 (Thermo Fisher Scientific) and CHANCE Software (in-house), and the ASMS Ratio (%) was calculated according to the following calculation formula. […]
measurementKind: ASMS ratio (%) n = 2
Report the value in % with no unit label.

input: Fill blank: measured ASMS ratio (%) n = 2 of the molecule `CCOc1cccc(C#Cc2cncc(C(=O)N3CCN(c4ccc(C(=O)N(CC)CC)nn4)CC3)c2)c1` is ____.
output: 0.0

input: And `CCOc1cccc(-c2ccc(CN3CCN(c4ccc(C(=O)N(C)CC56CC7CC(CC(C7)C5)C6)nn4)CC3)c(OC)c2)c1` ?
output: 5.4

input: And `CCOc1cccc(-c2ccc(C(=O)N3CCN(c4ccc(C(=O)N(CC)CC)nn4)CC3)c3ccccc23)c1` ?
output: 3.7

input: And `CCOc1cncc(-c2ccc(CN3CCN(c4ccc(C(=O)Nc5ccc(OC)cc5)nn4)CC3)cc2C)c1` ?
output: −0.9

input: And `CCOc1cccc(-c2ccc(CN3CCN(c4ccc(C(=O)N(C)CC56CC7CC(CC(C7)C5)C6)cc4)CC3)c3ccccc23)c1` ?
output: 0.0

input: And `CCOc1cccc(C#Cc2cncc(C(=O)N3CCN(c4ccc(C(=O)Nc5ccc(OC)cc5)nn4)CC3)c2)c1` ?
output: 1.3

input: And `CCOc1cncc(-c2ccc(CN3CCN(c4ccc(C(=O)N(C)CC56CC7CC(CC(C7)C5)C6)cc4)CC3)c3ccccc23)c1` ?
output: −2.9

input: And `CCOc1cccc(-c2cc(C(=O)N3CCN(c4ccc(C(=O)N(C)CC56CC7CC(CC(C7)C5)C6)nn4)CC3)cc(C(F)(F)F)c2)c1` ?
output: −6.3

input: And `CCOc1cncc(C#Cc2ccccc2C(=O)N2CCN(c3ccc(C(=O)N(CC)CC)nn3)CC2)c1` ?
output: 0.0

input: And `CCOc1cccc(-c2ccc(CN3CCN(c4ccc(C(=O)N(C)CC56CC7CC(CC(C7)C5)C6)cc4)CC3)cc2C)c1` ?
output: −5.9

input: And `CCOc1cccc(-c2ccc(C(=O)N3CCN(c4ccc(C(=O)N(C)CC56CC7CC(CC(C7)C5)C6)cc4)CC3)cc2C)c1` ?
output: −19.6

input: And `CCOc1cncc(-c2cc(CN3CCN(c4ccc(C(=O)N(C)CC56CC7CC(CC(C7)C5)C6)nn4)CC3)cc(C(F)(F)F)c2)c1` ?
output: 2.4

input: And `CCOc1cccc(-c2cc(C(=O)N3CCN(c4ccc(C(=O)N(CC)CC)cc4)CC3)cc(C(C)(C)C)c2)c1` ?
output: −1.5

input: And `CCOc1cncc(-c2cc(CN3CCN(c4ccc(C(=O)N(C)CC56CC7CC(CC(C7)C5)C6)nn4)CC3)cc(OCC)c2)c1` ?
output: 4.4
